Tested on: A549
Experiment: Cytotoxicity against human A549 cells upto 200 umol/L after 24 hrs by MTS assay
Assay type: cell-based
Settings: a549, 24 h

smilesCode | Activity
C[C@@H]1O[C@@H](OC[C@H]2O[C@@H](Oc3c(-c4ccc(O)c(O)c4)oc4cc(O)cc(O)c4c3=O)[C@H](O)[C@@H](O)[C@@H]2O)[C@H](O)[C@H](O)[C@H]1O | Non-toxic
O=c1c(O)c(-c2ccc(O)cc2)oc2cc(O)cc(O)c12 | Non-toxic
O=c1cc(-c2ccc(O)c(O)c2)oc2cc(O)cc(O)c12 | Non-toxic

* * *

Target: UniProt P06276
Sequence (P06276 whole entry): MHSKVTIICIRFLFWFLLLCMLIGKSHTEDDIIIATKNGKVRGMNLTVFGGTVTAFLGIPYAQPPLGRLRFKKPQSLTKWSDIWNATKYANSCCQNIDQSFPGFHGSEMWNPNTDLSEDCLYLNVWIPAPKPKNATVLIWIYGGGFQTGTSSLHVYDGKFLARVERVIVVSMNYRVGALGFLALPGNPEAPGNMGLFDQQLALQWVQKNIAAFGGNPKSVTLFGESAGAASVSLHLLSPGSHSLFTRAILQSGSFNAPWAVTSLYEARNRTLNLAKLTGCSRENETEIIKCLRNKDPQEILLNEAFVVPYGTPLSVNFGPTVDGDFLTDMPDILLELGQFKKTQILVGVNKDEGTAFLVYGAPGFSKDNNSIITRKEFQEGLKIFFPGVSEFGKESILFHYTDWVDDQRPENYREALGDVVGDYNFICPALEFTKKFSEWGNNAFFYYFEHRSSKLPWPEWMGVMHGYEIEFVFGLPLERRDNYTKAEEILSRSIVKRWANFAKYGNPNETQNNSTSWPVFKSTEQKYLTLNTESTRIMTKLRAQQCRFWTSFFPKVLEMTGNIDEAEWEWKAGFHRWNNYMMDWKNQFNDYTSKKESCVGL
Assay: Inhibition of human plasma BChE by Ellman's method
Measured log10(Ki) accompanies every entry in the list below.
readout: log10(Ki) (log10 of the value in microM/L)

smilesCode | systemName | log10(Ki)
O=c1cc(-c2ccc(O)c(O)c2)oc2cc(O)cc(O)c12 | UniProt P06276 | 2.22
O=c1c(O)c(-c2cc(O)c(O)c(O)c2)oc2cc(O)cc(O)c12 | UniProt P06276 | 1.85
O=c1cc(-c2ccc(O)cc2)oc2cc(O)cc(O)c12 | UniProt P06276 | 1.57
O=c1c(O)c(-c2ccccc2)oc2cc(O)cc(O)c12 | UniProt P06276 | 0.84
O=c1c(O)c(-c2ccc(O)cc2)oc2cc(O)cc(O)c12 | UniProt P06276 | 1.63
O=c1c(O)c(-c2ccc(O)c(O)c2)oc2cc(O)cc(O)c12 | UniProt P06276 | 1.83
O=c1c(O)c(-c2ccc(O)c(O)c2)oc2cc(O)ccc12 | UniProt P06276 | 1.95
C[C@@H]1O[C@@H](OC[C@H]2O[C@@H](Oc3c(-c4ccc(O)c(O)c4)oc4cc(O)cc(O)c4c3=O)[C@H](O)[C@@H](O)[C@@H]2O)[C@H](O)[C@H](O)[C@H]1O | UniProt P06276 | 2.70

* * *

System: A549
Assay: Cytotoxicity against human A549 cells upto 200 umol/L after 24 hrs by MTS assay
Type: cell-based
Conditions: a549, 24 h
readout: Activity

smilesCode | result
O=c1c(O)c(-c2cc(O)c(O)c(O)c2)oc2cc(O)cc(O)c12 | Non-toxic
O=c1cc(-c2ccc(O)cc2)oc2cc(O)cc(O)c12 | Non-toxic
O=c1c(O)c(-c2ccc(O)c(O)c2)oc2cc(O)cc(O)c12 | Non-toxic
O=c1c(O)c(-c2ccc(O)c(O)c2)oc2cc(O)ccc12 | Non-toxic
O=c1c(O)c(-c2ccccc2)oc2cc(O)cc(O)c12 | Non-toxic

* * *

Biological target: Acetylcholinesterase (Homo sapiens, UniProt P22303)
Sequence (P22303 whole entry): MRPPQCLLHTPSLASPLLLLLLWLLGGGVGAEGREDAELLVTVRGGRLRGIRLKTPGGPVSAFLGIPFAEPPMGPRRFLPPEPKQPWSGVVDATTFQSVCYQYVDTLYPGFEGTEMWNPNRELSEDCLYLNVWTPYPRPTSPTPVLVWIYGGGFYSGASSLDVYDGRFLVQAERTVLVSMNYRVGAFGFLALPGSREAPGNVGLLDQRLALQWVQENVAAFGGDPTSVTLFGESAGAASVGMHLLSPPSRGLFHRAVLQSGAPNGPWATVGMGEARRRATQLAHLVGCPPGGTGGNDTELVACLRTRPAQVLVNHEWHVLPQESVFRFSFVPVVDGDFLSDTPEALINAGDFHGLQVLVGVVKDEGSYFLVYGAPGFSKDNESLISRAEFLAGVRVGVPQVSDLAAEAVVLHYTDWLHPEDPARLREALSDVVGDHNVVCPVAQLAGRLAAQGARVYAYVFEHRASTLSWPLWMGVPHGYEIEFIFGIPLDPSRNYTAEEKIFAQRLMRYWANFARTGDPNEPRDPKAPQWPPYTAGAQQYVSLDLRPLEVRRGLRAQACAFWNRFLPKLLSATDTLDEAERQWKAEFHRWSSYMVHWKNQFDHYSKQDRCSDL
Experiment: Inhibition of human recombinant AChE by Ellman's method
Measured Ki accompanies every entry in the list below.

compound | systemName | unitDescriptor | Ki
O=c1cc(-c2ccc(O)cc2)oc2cc(O)cc(O)c12 [APIGENIN] | Acetylcholinesterase (Homo sapiens, UniProt P22303) | microM/L | 121.6
O=c1c(O)c(-c2cc(O)c(O)c(O)c2)oc2cc(O)cc(O)c12 [MYRICETIN] | Acetylcholinesterase (Homo sapiens, UniProt P22303) | microM/L | 37.8
O=c1c(O)c(-c2ccc(O)c(O)c2)oc2cc(O)ccc12 [FISETIN] | Acetylcholinesterase (Homo sapiens, UniProt P22303) | microM/L | 100.2
